# TARGET SYSTEM: T1, DLG3_1, Q92796
# T1 sequence (Q92796 125-227, limits assumed, looked up): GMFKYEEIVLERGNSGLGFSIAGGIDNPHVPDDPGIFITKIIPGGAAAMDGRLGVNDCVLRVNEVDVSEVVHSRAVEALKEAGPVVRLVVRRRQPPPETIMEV
# ASSAY INFO: holdup assay
# Parameters: key: below the threshold = too weak to quantify, mostly under pKd 3.1 to 4
# EXPERIMENTAL PARAMETERS: plain residues with an end cap or a label only (N-terminal biotin on a linker: ado-ado)
Tag: true if measured pKd is not below 4, false if it is.

BINDER: RFQQRMQTHV [KIRREL1, Q96J84]
CATEGORY LABEL: false
//
BINDER: QLSFNTDTLC [ABCA2, Q9BZC7]
CATEGORY LABEL: false
//
BINDER: EIPAQSPTCV [FZD10, Q9ULW2]
CATEGORY LABEL: false
//
BINDER: PSHPRLQTHV [KIRREL2, Q6UWL6]
CATEGORY LABEL: false
//
BINDER: DPAESMESLV [PTPRG, P23470]
CATEGORY LABEL: true
//
BINDER: ILRKSTTTTV [PRR16, Q569H4]
CATEGORY LABEL: true
//
BINDER: RDPPAEWTRV [PTPN18, Q99952]
CATEGORY LABEL: false
//
BINDER: NTLNRKTTPV [CACNG8, Q8WXS5]
CATEGORY LABEL: false
//
BINDER: NTANRRTTPV [CACNG2, Q9Y698]
CATEGORY LABEL: false
//
BINDER: ARGPPRESEV [FAM110D, Q8TAY7]
CATEGORY LABEL: true
//
BINDER: GIKKITSTAL [RPS6KA3, P51812]
CATEGORY LABEL: false
//
BINDER: KSRVAFFEEL [NF2, P35240]
CATEGORY LABEL: false
